biological target: MAP1LC3B ATG8 domain (human, UniProt Q9GZQ8 1-120); test: fluorescence polarisation; saturation binding: dilution series of the protein domain added to 10 nM FITC-labelled peptide; 50 mM sodium phosphate pH 7.4, 0.05% Tween (protein dialysed in 50 mM sodium phosphate with 1 mM DTT; CASK kinase domain with 100 mM NaCl in addition); quadratic fit; technical triplets; settings: both partners purified
Where no end group is shown, it is not given here.
measurementType: Kd (nM)
The response must be a number in nM with no trailing unit.

IN: Request the reported Kd associated with DDDWTHLSSK (also: FITC label, position not given here) [FITC-SQSTM1]
OUT: 1400
